Test system: Escherichia coli ATCC25922
Assay type: cell-based
condition: ATCC25922, 24 h
No end group written: not given here.
property_measured: MIC, Control (µM)

>>> val("RKRRIVVIRRKR-NH2 [K2R3R10K11]")
8
>>> val("RRWRIVVIRWRR-NH2 [R2W3W10R11]")
2
>>> val("RWKRIVVIRKRR-NH2 [W2K3K10R11]")
4
>>> val("RKWRIVVIRVRR-NH2 [K2W3V10R11]")
2
>>> val("RWRRIVVIRVRR-NH2 [W2R3V10R11]")
2
>>> val("RRFRIVVIRWLR-NH2 [R2F3W10L11]")
2

====

Measured MIC, listed per entry for reference.
Test system: Cronobacter sakazakii ATCC29544
Assay type: cell-based
condition: ATCC29544, 24 h
No end group written: not given here.
property_measured: MIC (µM)

>>> val("RWRRIVVIRVRR-NH2 [W2R3V10R11]")
16
>>> val("RWKRIVVIRKRR-NH2 [W2K3K10R11]")
256
>>> val("RRFRIVVIRWLR-NH2 [R2F3W10L11]")
32
>>> val("RKWRIVVIRVRR-NH2 [K2W3V10R11]")
32
>>> val("RRWRIVVIRWRR-NH2 [R2W3W10R11]")
64

====

System: EA. hy 926 cells
assay_summary: Cytotoxicity (CCK-8)
Assay type: cell-based, human
condition: CCK-8, 24 h; peptide concentration 128 μM
No end group written: not given here.
Entries whose EA. hy 926 cell viability is below 80% take met; entries at or above 80% take not met.

>>> assigned_class("RWKRIVVIRKRR-NH2 [W2K3K10R11]")
"not met"
>>> assigned_class("RRFRIVVIRWLR-NH2 [R2F3W10L11]")
"met"
>>> assigned_class("RRWRIVVIRWRR-NH2 [R2W3W10R11]")
"met"
>>> assigned_class("RKRRIVVIRRKR-NH2 [K2R3R10K11]")
"not met"

====

Tested on: Escherichia coli ATCC25922
Type: cell-based
condition: ATCC25922, 24 h
No end group written: not given here.
property_measured: MIC, NH4Cl (µM)

>>> val("RWKRIVVIRKRR-NH2 [W2K3K10R11]")
4
>>> val("RRFRIVVIRWLR-NH2 [R2F3W10L11]")
4
>>> val("RKWRIVVIRVRR-NH2 [K2W3V10R11]")
2
>>> val("RWRRIVVIRVRR-NH2 [W2R3V10R11]")
2
>>> val("RKRRIVVIRRKR-NH2 [K2R3R10K11]")
8
>>> val("RRWRIVVIRWRR-NH2 [R2W3W10R11]")
2

====

Measured MIC, listed per entry for reference.
Tested on: Bacillus cereus CMCC6303
Format: cell-based
condition: CMCC6303, 24 h
No end group written: not given here.
property_measured: MIC (µM)

>>> val("RRFRIVVIRWLR-NH2 [R2F3W10L11]")
32
>>> val("RRWRIVVIRWRR-NH2 [R2W3W10R11]")
64
>>> val("RKWRIVVIRVRR-NH2 [K2W3V10R11]")
16
>>> val("RKRRIVVIRRKR-NH2 [K2R3R10K11]")
128
>>> val("RWRRIVVIRVRR-NH2 [W2R3V10R11]")
64

Where do these numbers come from? They come from paper PMC6848382.
